tested on: SF-268; test: NCI tumour cell line growth inhibition, 48 h
The source made the active and inactive calls. Rule as the data show it: active = GI50 up to about 1.1 µM and inactive = higher.
Answer with one of the outcomes label 1 = active, label 0 = inactive

Challenge: Hello, I am checking results. What call was entered for `C[C@]12CC[C@@H]3c4ccc(O)cc4CC[C@H]3[C@@H]1C/C(=C\c1ccc([N+](=O)[O-])cc1)C2=O` ?
Response given: label 0

Challenge: Record request — test call for `CCCN(CCCc1ccccc1)CCc1ccc2[nH]c(=S)[nH]c2c1`
Response given: label 0

Challenge: Each molecule tested received a call. Report the one for `CN(C)c1ccc(/C=C/C(=O)c2ccc(O)cc2)cc1` .
Response given: label 0

Challenge: For this molecule, state the assay outcome: `CC(=O)OC/C=C\Cn1ncc(=O)[nH]c1=O`
Response given: label 0

Challenge: Could you kindly confirm the outcome this assay logged for `COc1ccc2c(c1)CC[C@@H]1[C@@H]2CC[C@]2(C)C(=O)/C(=C/c3ccc(N(C)C)cc3)C[C@@H]12` ?
Response given: label 0

Challenge: What classification did `O=C1C(N2CCOCC2)=C(Cl)C(=O)c2ncccc21` end up with in this test?
Response given: label 0

Challenge: Dear all, I need the recorded test outcome for `N#Cc1cccc(N2C(=O)c3c(c(-c4ccccc4)c(-c4ccc(Sc5ccc(-c6c(-c7ccccc7)c7c(c(-c8ccccc8)c6-c6ccccc6)C(=O)N(c6cccc(C#N)c6)C7=O)cc5)cc4)c(-c4ccccc4)c3-c3ccccc3)C2=O)c1` , thank you.
Response given: label 0

Challenge: Just curious, what result did `CC(=O)O[C@H]1C(=O)[C@@]2(C)[C@H]([C@H](OC(=O)c3ccccc3)[C@]3(O)C[C@H](OC(=O)[C@H](O)[C@@H](NC(=O)c4ccccc4)c4ccc5ccccc5c4)C(C)=C1C3(C)C)[C@]1(OC(C)=O)CO[C@@H]1C[C@@H]2O` get here?
Response given: label 1

* * *

Consider the following compounds; for each one, report its GI50.
tested on: T47D; experiment: NCI tumour cell line growth inhibition, 48 h
Active and inactive are the calls of the source. No stated cut-off is given here; in the data, active = GI50 up to about 1.1 µM and inactive = higher.

Challenge: Write down the reported GI50 of `COc1ccccc1/C=C/c1cnccn1` , test system: T47D.
Response given: > 10 µM (inactive)

Challenge: Lab request: please report GI50 under test system T47D for C[Si](C)(C)OC1(C#N)c2ccccc2CCCC12CCCC2 (configuration not stated)
Response given: 24.7 µM (inactive)

Challenge: Enter reported GI50 observed with T47D for `O=C(c1ccco1)N(Cc1ccco1)C(=S)Nc1ccccc1`
Response given: 14.1 µM (inactive)

Challenge: Recall the recorded GI50 for `[O-][n+]1cc(SCc2ccccc2)ncc1SCc1ccccc1` with T47D and state it.
Response given: > 10 µM (inactive)

Challenge: Quick check: GI50 on T47D, item `O=C1C=CC(=NNc2ccccc2)C=CC1=O` ?
Response given: 10.2 µM (inactive)

Challenge: T47D / GI50 / `Cc1nc(N)c(N2CCN(C#N)CC2)c(O)n1` : value?
Response given: > 100 µM (inactive)

Challenge: Form field - read-out: GI50; system: T47D; submitted item: `Cc1cc2ccccc2n2c1nc1ccc(O)cc12`
Response given: > 10 µM (inactive)

Challenge: // fetch T47D GI50 for `NS(=O)(=O)c1ccc(/N=N/c2ccc(O)c(O)c2)cc1`
Response given: 34.8 µM (inactive)

Challenge: Hi! What's the reported GI50 for `OC[C@H]1N[C@H](CO)[C@@H](O)[C@H]1O` on T47D?
Response given: > 100 µM (inactive)

Challenge: Please provide the recorded GI50 for COc1ccc(C2CCc3c(cnc4nc(N)nc(N)c34)C2)cc1 (configuration not stated) , tested on T47D.
Response given: 31 µM (inactive)

Challenge: Test system T47D; read-out GI50; what value for O=C(c1ccco1)C1CC(c2c(O)ccc3ccccc23)=NN1 (configuration not stated) ?
Response given: 3.33 µM (inactive)

Challenge: Lab request: please report GI50 under test system T47D for `CC(C)(C)C(=O)C(CC(=O)c1ccccc1)C(=O)C(C)(C)C`
Response given: > 100 µM (inactive)

* * *

tested on: LOX IMVI; experiment: NCI tumour cell line growth inhibition, 48 h
Calls of active or inactive are those of the source. No stated cut-off is given here; in the data, active = GI50 up to about 1.1 µM and inactive = higher.
Exercise: for every item that follows, state its recorded GI50.

Challenge: Form field: reported GI50 of CC(O[Si](C)(C)C(C)(C)C)[C@H](NC(=O)OCC(Cl)(Cl)Cl)C(=O)O (stereo partly drawn)
Response given: > 10 µM (inactive)

Challenge: If you can, please state the reported GI50 value of `O=C1N/C(=N/N=C/c2cccs2)N/C1=C\c1ccco1` .
Response given: 21.6 µM (inactive)

Challenge: I would be grateful if you could share the reported GI50 for `NS(=O)(=O)c1ccc(/N=N/c2ccc(O)c(O)c2)cc1` .
Response given: 15 µM (inactive)

Challenge: Find the recorded GI50 belonging to `O=C(COc1ccc(Cl)cc1Cl)N/N=C/C=C/c1ccc([N+](=O)[O-])o1` and report it.
Response given: 3.27 µM (inactive)

Challenge: Which measured GI50 value corresponds to `C=C1CC/C=C(/C(=O)O)CC[C@H]2[C@@H]1CC2(C)C` ?
Response given: > 100 µM (inactive)

Challenge: Which measured GI50 value corresponds to CSc1nc2nc(C(O)C(O)C(O)CO)cnc2c(=O)[nH]1 (stereo not drawn) ?
Response given: > 100 µM (inactive)

Challenge: Which value of GI50 has been reported for `Cc1cc2c(cc1C)[n+]([O-])c(C(=O)/C=C/c1ccc(Cl)cc1)c(C)[n+]2[O-]` in the records?
Response given: 21.7 µM (inactive)

Challenge: Consider the compound shown here: `CN(N)c1nc(N)c(C#N)c(C#N)c1C#N` What is its recorded GI50?
Response given: > 10 µM (inactive)

Challenge: Can you share its GI50? I mean this compound: CC1OC(=O)N(CCCC=C2SCCCS2)C1=O (stereo not drawn)
Response given: > 100 µM (inactive)

Challenge: State the recorded GI50 for this entry: `C=C1c2nc3ccccc3n2C=C(c2ccccc2)N1c1ccc(Cl)cc1`
Response given: 45.8 µM (inactive)

Challenge: Consider the compound `Cc1ccc(N2C[N+](c3ccccc3)=NC(c3ccccc3)=N2)cc1` and give its measured GI50.
Response given: 32.4 µM (inactive)

Challenge: Suppose we examine the compound COCCNC(=O)C1C(=O)N(CCOC)C(=O)/C1=N/N (stereo not drawn) ; what GI50 value has been reported?
Response given: > 100 µM (inactive)

Challenge: Report GI50 for `O=C1C=Cc2ncccc2C1=O` please.
Response given: 13.5 µM (inactive)

Challenge: What measured GI50 goes with COC(=O)[C@H](Cc1c[nH]c2ccccc12)NP(=O)(OCCC#N)OCC1OC(n2cc(C)c(=O)[nH]c2=O)CC1N=[N+]=[N-] (stereo partly drawn) ?
Response given: > 100 µM (inactive)

Challenge: Fill in the blank: the reported GI50 of N#CC1C(=O)NC23CCCCC2C1c1ccccc1O3 (stereo not drawn) is ____.
Response given: > 100 µM (inactive)

Challenge: Could you tell me which GI50 is on file for CC(Oc1ccc(OCC2CCCCC2)cc1)C(=O)NCCO (stereo not drawn) ?
Response given: 26.7 µM (inactive)

Challenge: # get_value(readout='GI50', item= `Cc1cc(Nc2ccc(S(=O)(=O)O)cc2)c2ccccc2n1` )
Response given: > 100 µM (inactive)

Challenge: GI50 lookup needed for `OCCCCn1cnc2c(O)ncnc21` , thanks.
Response given: > 100 µM (inactive)

Challenge: Which GI50 reading was recorded for the compound `N#C/C=c1/c2ccccc2n2nc3ccccc3c12` ?
Response given: 8.13 µM (inactive)

Challenge: I am curious: what GI50 value has been reported for COc1cc(C(=O)O)cc2c1[nH]c1ccccc12 [MUKOEIC ACID] ?
Response given: > 25 µM (inactive)

Challenge: I have this compound here, `CC(C)C1=C(Cc2ccccc2)C(=O)O/C1=C\c1ccc(O)c(Cl)c1` , and I need its recorded GI50.
Response given: 18.4 µM (inactive)

Challenge: // GI50 lookup, key: `Cc1c(Cl)cccc1NC(=O)C(=O)C1C(=O)NC(=O)NC1=O`
Response given: > 100 µM (inactive)

Challenge: Please look up its GI50: `Cc1ccccc1NC(=O)CC(=O)n1nc(-c2ccccc2)c(/N=N/c2ccc([N+](=O)[O-])cc2)c1-c1ccccc1`
Response given: 20.6 µM (inactive)

Challenge: Which GI50 is listed for `C[C@]12Cc3cnc(-c4ccccc4)nc3C[C@@H]1CC[C@@H]1[C@@H]2CC[C@@]2(C)[C@H]1CC[C@]2(C)O` ?
Response given: 4.6 µM (inactive)

Challenge: Bench note: what GI50 did `CCN1C(=O)C(=Cc2ccc(-c3ccccc3)cc2)C(=O)N(CC)C1=S` show?
Response given: > 100 µM (inactive)

Challenge: Which measured GI50 value corresponds to `CCCC(=O)OCOC(=O)N(C)/N=N/c1ccc(C(=O)OCC)cc1` ?
Response given: 10.7 µM (inactive)

Challenge: # GI50 lookup, item `COC(=O)c1ccccc1NC(=O)C(=O)NNC(=O)c1ccncc1`
Response given: > 100 µM (inactive)

Challenge: I have this compound here, `O=C1C=CC(=NNc2ccccc2)C=CC1=O` , and I need its recorded GI50.
Response given: 5.09 µM (inactive)

Challenge: Bench note: what GI50 did CC1=C[P+](Cc2ccccc2)(c2ccccc2)CC1 (stereo not drawn) show?
Response given: > 100 µM (inactive)

Challenge: Quick check: GI50 of `O=c1c2cc(I)ccc2nc(SCc2nnco2)n1Cc1ccccc1` ?
Response given: > 100 µM (inactive)

Challenge: Name the reported GI50 value associated with the compound `CNC(=O)N1CN(c2ccccc2)C2(CCN(CCCC(=O)c3ccc(F)cc3)CC2)C1=O`
Response given: 17.1 µM (inactive)

Challenge: Name the recorded GI50 for NC(Cc1ccccc1)C(=O)OCN1C(=O)C2C3C=CC(C2C1=O)C1C2C(=O)N(COC(=O)C(N)Cc4ccccc4)C(=O)C2C31 (stereo not drawn) .
Response given: 18.7 µM (inactive)

Challenge: Would you kindly share the measured GI50 for Clc1ccc(C2=NNC(c3cccc(Cl)c3)C2)cc1 (stereo not drawn) ?
Response given: 16 µM (inactive)

Challenge: Reported GI50 for `COc1ccc(/C=N\O[Si](C)(C)C(C)(C)C)cc1O[Si](C)(C)C(C)(C)C` : what is it?
Response given: 20 µM (inactive)

Challenge: Return reported GI50; argument: `COc1ccc2[nH]c3c(O)nncc3c2c1`
Response given: > 100 µM (inactive)

Challenge: Quick one: GI50 for `Cc1cn(Cc2cccc(C3=NCCCN3)c2)c(=O)n(Cc2cccc(C3=NCCCN3)c2)c1=O` ?
Response given: > 100 µM (inactive)

Challenge: Data request, read-out GI50, for `[O-][n+]1cc(SCc2ccccc2)ncc1SCc1ccccc1`
Response given: > 10 µM (inactive)

Challenge: Query (compound): CC1OC(O)CC(OC(=O)c2ccccc2)C1OC(=O)c1ccccc1 (stereo not drawn) ; field requested: GI50
Response given: 11.1 µM (inactive)

Challenge: Data request, read-out GI50, for [N-]=[N+]=NC1CC(n2cc(COCC(F)(F)F)c(=O)[nH]c2=O)OC1CO (stereo not drawn)
Response given: > 100 µM (inactive)

Challenge: Consider the compound shown here: `NCCNCCCNC(=O)c1cc(-c2ccccc2)nc2ccccc12` What is its recorded GI50?
Response given: 28.3 µM (inactive)

Challenge: # lookup: GI50 of `O=C(C1=CCC2(CC1)OCCO2)N(Cc1ccccc1)c1ccccc1I`
Response given: 21.2 µM (inactive)

Challenge: # get_value(readout='GI50', item= `COc1cc(CNc2nc3cc(C(F)(F)F)ccc3nc2C(=O)O)cc(OC)c1OC` )
Response given: 31.4 µM (inactive)

Challenge: Requested read-out: GI50. Entry: `O=[N+]([O-])c1cc(-[n+]2cc([O-])on2)ccc1F`
Response given: 14.9 µM (inactive)
